- Tested on: A549 cells
- assay-overview: Cell viability assay (XTT assay), A549
- Assay type: cell-based
- condition-parameters: Homo sapiens, 72 hrs
- Method: Next day compounds were added to cells and incubated for 72 hrs. Compound treatment was done in triplicates. After 72 hrs cell culture media was aspirated from the wells and XTT working solution was added and plates were incubated for 2-5 hrs. […] EC50 values were calculated using Graphpad Prism. Tumor cell lines used in the examples of the present invention were procured from ATCC. Description of the cell lines is included in the following table: […]
readout: pEC50
One number for each entry, as −log10 of the molar value.

// worked examples, pEC50 included
{"smi": "Cc1ccc(NC(=O)c2cccc(C(C)(C)C)c2)cc1N1CCc2nc(Nc3ccc(N4CCN(C)CC4)cc3)ncc2C1=O", "val": 7.11}
{"smi": "CN1CCN(c2ccc(Nc3ncc4c(n3)CCN(c3cc(NC(=O)c5cccc(C(F)(F)F)c5)ccc3Cl)C4=O)cc2)CC1", "val": 5.94}
{"smi": "Cc1ccc(NC(=O)c2cccc(C(F)(F)F)c2)cc1N1CCc2nc(Nc3ccc(C(=O)N4CCN(C)CC4)nc3)ncc2C1", "val": 7.33}
{"smi": "Cc1ccc(NC(=O)c2cccc(C(F)(F)F)c2)cc1N1CCc2nc(Nc3ccc(N4CCN(C)CC4)cc3)ncc2C1=O", "val": 5.97}
{"smi": "O=C(Nc1ccc(Cl)c(N2CCc3nc(Nc4ccc(OCCN5CCCC5)cc4)ncc3C2=O)c1)c1cccc(C(F)(F)F)c1", "val": 5.60}

Now take the following compound into account.
Documented pEC50 of Cc1ccc(NC(=O)c2cccc(C(F)(F)F)c2)cc1N1CCc2nc(Nc3ccc(OCCN4CCCC4)cc3)ncc2C1=O : 5.47
